target: T1, GPR39 (G protein-coupled receptor 39) (Homo sapiens (Human), UniProt O43194 1-453)
T1 sequence: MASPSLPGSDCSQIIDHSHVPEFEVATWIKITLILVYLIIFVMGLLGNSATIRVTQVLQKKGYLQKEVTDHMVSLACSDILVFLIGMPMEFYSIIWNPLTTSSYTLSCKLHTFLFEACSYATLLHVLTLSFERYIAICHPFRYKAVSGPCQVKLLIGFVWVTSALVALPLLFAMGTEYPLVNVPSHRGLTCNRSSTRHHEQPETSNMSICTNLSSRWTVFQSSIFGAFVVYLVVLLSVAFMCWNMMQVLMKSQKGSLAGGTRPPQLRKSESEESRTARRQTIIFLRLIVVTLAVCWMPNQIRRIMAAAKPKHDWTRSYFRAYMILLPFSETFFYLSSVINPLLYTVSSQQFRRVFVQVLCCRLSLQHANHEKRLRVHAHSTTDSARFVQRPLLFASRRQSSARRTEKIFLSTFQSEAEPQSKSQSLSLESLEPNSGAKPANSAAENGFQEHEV
measurement_description: cell-based or functional assay
Square brackets hold non-standard residues; d marks the D form. Ends that are not written are not given here. * marks the point of attachment. dPhe(4-Me) = Cc1ccc(C[C@@H](N)C(=O)O)cc1; Trt = c1ccc(C(c2ccccc2)(c2ccccc2)*)cc1; Benzhydryl = c1ccc(C(c2ccccc2)*)cc1; Octanoyl = CCCCCCCC(=O)*
// assign Met if EC50 (luciferase reporter) falls strictly below 20 nM, else Not met (ties count as Not met)

Previously resolved entries follow.
H(Benzhydryl)K(Octanoyl)[dPhe(4-Me)][Tyr(3,5-nitro)] [HKFY-69] : Met
H(Trt)K(Octanoyl)FYSHQQARF (not fully specified; printed as His(trt)-Lys(caprylic)-Phe-Tyr-Ser-His-Gln-Gln-Ala-Arg-Phe) [HKFY-40] : Not met
H(Benzhydryl)K(Octanoyl)FY [HKFY-33] : Not met
His(Trt)-Lys(Octanoyl)-Phe [HKFY-49] : Not met

Field: next binder
Hello, I'm reviewing records and need to know if EC50 (luciferase reporter) of H(4‑hydroxybenzhydryl)K(Octanoyl)[dPhe(4-Me)]Y [HKFY-65] is below 20 nM. Could you check?
Met
